Property: AC50; scope: individual compounds
TESTED_ON: Gamma-aminobutyric acid receptor subunit alpha-1/alpha-2/beta-2/gamma-2 (Homo sapiens, UniProt P14867+P18507+P47869+P47870)
Sequence (P14867 whole entry): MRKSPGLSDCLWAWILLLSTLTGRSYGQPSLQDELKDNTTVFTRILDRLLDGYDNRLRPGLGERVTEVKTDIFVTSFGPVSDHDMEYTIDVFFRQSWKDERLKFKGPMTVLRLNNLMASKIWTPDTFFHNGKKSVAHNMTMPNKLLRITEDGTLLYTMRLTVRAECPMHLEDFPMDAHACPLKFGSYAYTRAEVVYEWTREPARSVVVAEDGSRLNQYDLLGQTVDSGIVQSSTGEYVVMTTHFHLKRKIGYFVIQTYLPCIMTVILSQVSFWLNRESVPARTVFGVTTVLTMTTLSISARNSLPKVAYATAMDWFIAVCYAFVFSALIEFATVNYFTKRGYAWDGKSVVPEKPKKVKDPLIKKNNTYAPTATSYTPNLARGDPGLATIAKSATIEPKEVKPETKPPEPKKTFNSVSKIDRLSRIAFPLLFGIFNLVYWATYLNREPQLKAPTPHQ
Sequence (P47870 whole entry): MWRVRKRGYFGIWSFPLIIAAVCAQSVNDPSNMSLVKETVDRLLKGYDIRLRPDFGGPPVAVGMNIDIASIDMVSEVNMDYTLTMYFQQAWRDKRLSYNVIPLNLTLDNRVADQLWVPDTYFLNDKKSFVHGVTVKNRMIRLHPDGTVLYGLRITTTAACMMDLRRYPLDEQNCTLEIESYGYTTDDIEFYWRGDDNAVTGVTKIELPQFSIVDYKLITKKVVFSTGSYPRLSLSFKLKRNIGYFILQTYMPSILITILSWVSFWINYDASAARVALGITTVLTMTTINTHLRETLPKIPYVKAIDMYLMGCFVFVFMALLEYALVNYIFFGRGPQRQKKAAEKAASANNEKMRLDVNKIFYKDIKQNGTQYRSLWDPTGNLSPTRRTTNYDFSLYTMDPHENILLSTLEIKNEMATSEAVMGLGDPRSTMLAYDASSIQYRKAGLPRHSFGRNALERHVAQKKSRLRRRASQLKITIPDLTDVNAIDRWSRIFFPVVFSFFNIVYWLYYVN
Sequence (P18507 whole entry): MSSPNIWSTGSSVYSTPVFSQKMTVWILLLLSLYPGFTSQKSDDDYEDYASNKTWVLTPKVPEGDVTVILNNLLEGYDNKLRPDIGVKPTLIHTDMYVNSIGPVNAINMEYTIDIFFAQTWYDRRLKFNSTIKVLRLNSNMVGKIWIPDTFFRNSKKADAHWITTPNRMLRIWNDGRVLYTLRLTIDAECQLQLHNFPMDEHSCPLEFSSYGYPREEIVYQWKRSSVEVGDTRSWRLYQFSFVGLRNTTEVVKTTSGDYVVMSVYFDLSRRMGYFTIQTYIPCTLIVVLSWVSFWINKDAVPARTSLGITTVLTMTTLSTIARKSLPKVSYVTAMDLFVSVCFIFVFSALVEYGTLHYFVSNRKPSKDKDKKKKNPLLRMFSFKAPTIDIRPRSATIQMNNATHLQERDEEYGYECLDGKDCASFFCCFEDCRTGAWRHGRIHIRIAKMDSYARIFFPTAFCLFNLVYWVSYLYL
Sequence (P47869 whole entry): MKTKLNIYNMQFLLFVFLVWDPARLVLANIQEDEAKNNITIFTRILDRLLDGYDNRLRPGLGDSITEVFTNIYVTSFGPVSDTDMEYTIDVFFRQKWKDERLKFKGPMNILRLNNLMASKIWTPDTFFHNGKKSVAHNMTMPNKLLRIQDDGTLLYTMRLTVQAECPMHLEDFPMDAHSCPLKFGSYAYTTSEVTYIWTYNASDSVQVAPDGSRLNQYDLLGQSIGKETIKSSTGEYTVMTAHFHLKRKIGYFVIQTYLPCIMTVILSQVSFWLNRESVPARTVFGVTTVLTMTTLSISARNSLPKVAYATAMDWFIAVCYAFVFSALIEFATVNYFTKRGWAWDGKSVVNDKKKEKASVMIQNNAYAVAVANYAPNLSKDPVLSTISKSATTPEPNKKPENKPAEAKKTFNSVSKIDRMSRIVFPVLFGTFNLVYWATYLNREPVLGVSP
Format: functional, cell-based
MEASURED_ENDPOINT: AC50

COMPOUND	MEASURED_ENDPOINT	REPORTED_MEASUREMENT
CO/N=C(\C(=O)N[C@@H]1C(=O)N2C(C(=O)OCOC(=O)C(C)(C)C)=C(C)CS[C@H]12)c1csc(N)n1	AC50	> 30 µM
CN1C(=O)N(C)C2C1N(C)C(=O)N2C (stereo not given) [MEBICAR]	AC50	> 30 µM
O=C(CCCCCCC(=O)Nc1ccccc1)NO [VORINOSTAT]	AC50	> 30 µM
CC/C=C\C/C=C\C/C=C\CCCCCCCC(=O)O [LINOLENIC ACID]	AC50	> 30 µM
CN1CCCC(n2nc(Cc3ccc(Cl)cc3)c3ccccc3c2=O)CC1 (stereo not given) [AZELASTINE]	AC50	19 µM

Value source: ChEMBL document CHEMBL5291721
